experiment: Clearance in mouse; assay type: ADME, organism-based; details: in vivo
Reported clearance values for a set of molecules
Give the quantity in mL/min/kg, number only.

Data request, read-out clearance, for `O=C(/C=C/c1cccc(S(=O)(=O)Nc2ccccc2)c1)NO`
193

Moving on to another molecule below.
Data request, read-out clearance, for `Cc1[nH]c2ccccc2c1CCNCc1ccc(/C=C/C(=O)NO)cc1`
305

====

Reported log10(IC50) values for a set of molecules
biological target: Histone deacetylase; test: Inhibition of human HDAC in HeLa cell nuclear extracts using KI-104 Fluor de Lys as substrate by fluorescence assay; assay type: protein assay
Use the decimal logarithm of IC50 (nM).

Field: log10(IC50) (Histone deacetylase). Entry: `CC(=O)N1CCC2(CC1)CC(=O)c1cc(/C=C/C(=O)NO)ccc1O2`
2.81

Field: log10(IC50) (Histone deacetylase). Entry: `O=C(/C=C/c1ccc2c(c1)OC1(CCNCC1)CC2=O)NO`
3.15

Field: log10(IC50) (Histone deacetylase). Entry: `O=C(/C=C/c1ccc2c(c1)OC1(CCN(Cc3ccccc3)CC1)CC2=O)NO`
3.34

Field: log10(IC50) (Histone deacetylase). Entry: `CCOC(=O)N1CCC2(CC1)CC(=O)c1cc(/C=C/C(=O)NO)ccc1O2`
2.15

Field: log10(IC50) (Histone deacetylase). Entry: `O=C(/C=C/c1ccc2c(c1)C(=O)C1(CCN(C(=O)c3ccccc3)CC1)O2)NO`
3.41

***
Field: log10(IC50) (Histone deacetylase). Entry: `O=C(NO)c1ccc2c(c1)C(=O)CC1(CCN(Cc3ccccc3)CC1)O2`
4.38

Field: log10(IC50) (Histone deacetylase). Entry: `O=C(/C=C/c1ccc2c(c1)C=CC1(CCN(Cc3ccccc3)CC1)O2)NO`
3.08

Field: log10(IC50) (Histone deacetylase). Entry: CC(=O)NC1CC2(CCN(Cc3ccccc3)CC2)Oc2ccc(/C=C/C(=O)NO)cc21 (stereo not given)
3.71

Field: log10(IC50) (Histone deacetylase). Entry: O=C(/C=C/c1ccc2c(c1)C(O)CC1(CCN(Cc3ccccc3)CC1)O2)NO (stereo not given)
3.08

====

Reported IC50 values for a set of compounds
system: HCT-116; assay: Antiproliferative activity against human HCT116 cells after 72 hrs by CellTiter-Glo luminescent cell viability assay; type: functional, cell-based; details: HCT-116, 72 h
Give the quantity in µM, number only.

Data request, read-out IC50, for `O=C(/C=C/c1ccc2c(c1)C(=O)CC1(CCN(Cc3ccccc3)CC1)O2)NO`
0.477

Data request, read-out IC50, for `CCOC(=O)N1CCC2(CC1)Oc1ccc(/C=C/C(=O)NO)cc1C2=O`
11.8

Data request, read-out IC50, for `CC(=O)N1CCC2(CC1)CC(=O)c1cc(/C=C/C(=O)NO)ccc1O2`
5.66

Data request, read-out IC50, for `O=C(/C=C/c1ccc2c(c1)C(=O)C1(CCNCC1)O2)NO`
0.832

Data request, read-out IC50, for `CN1CCC2(CC1)CC(=O)c1cc(/C=C/C(=O)NO)ccc1O2`
0.266

Moving on to another compound below.
Data request, read-out IC50, for `O=C(/C=C/c1ccc2c(c1)C=CC1(CCN(Cc3ccccc3)CC1)O2)NO`
3.51
